# Experimental system: DN-IV quality control recombinant protein (produced by the company) (dengue virus)
# Assay comment: BLI, antibody on AMC sensor
Measure: Kd (nM)
Answer in nM, number only, no unit symbol.

Binder	Unit of measurement	Endpoint result
Mutation 1-8 (antibody, V domains shown) VH: EVQLQQPGPELVKPGASVKMSCKASGYTFTSYVIHWVRQKPGQGLEWIGYMNPYNDGIKYNEKFIGKAILTSDKSSSTAYMQLSSLTSEDSAVYYCTREGLFYVMDYWGQGTSVTVSS VL: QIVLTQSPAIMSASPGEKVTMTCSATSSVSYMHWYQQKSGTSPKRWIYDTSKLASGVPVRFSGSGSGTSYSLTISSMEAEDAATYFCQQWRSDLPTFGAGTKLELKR	nM	4.08

Switching to the query record.
Looking up WT (recombinant anti-dengue virus NS1 7F8 antibody of Example 2) (antibody, mouse IgG1, kappa, V domains shown) VH: EVQLQQPGPELVKPGASVKMSCKASGYTVTSYVIHWVRQKPGQGLEWIGYMNAYNDGIKYNEKFIGKAILTSDKSSSTAYMQLSSLTSEDSAVYYCTKEGLFYVMDYWGQGTSVTVSS VL: QIVLTQSPAIMSASPGEKVTMTCSATSSISYMHWYQQKSGTSPKRWIYDTSKLASPVPVRFSGSGSGTSYSLTISSMEAEDAATYFCQYWRSDLPTFGAGTKLELKR , I found its Kd recorded as 3.15
